target: Aβ1-42 (Homo sapiens, UniProt P05067)
Sequence (P05067 672-713 limits assumed): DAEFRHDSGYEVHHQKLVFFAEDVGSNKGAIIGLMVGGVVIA
PROPERTY: pIC50
Scale for pIC50: -log10 of concentration given in mol/L; no unit attached.

Below are worked cases with known answers.
CC(C)CC1=NN(C(=O)C(=O)NCCc2ccccc2)C(O)(C(F)(F)F)C1 (centres unmarked)    4.38
CCCCCC1=NN(C(=O)C(=O)Nc2ccc(OC)cc2)C(O)(C(F)(F)F)C1 (centres unmarked)    5.06
CCCC1=NN(C(=O)c2ccccc2O)C(O)(C(F)(F)F)C1 (centres unmarked)    5.07
COc1ccccc1NC(=O)C(=O)N1N=C(C2CCCCC2)CC1(O)C(F)(F)F (centres unmarked)    4.54
CCCC1=NN(C(=O)C(=O)Nc2ccccc2OC)C(O)(C(F)(F)F)C1 (centres unmarked)    5.19

Data request: # lookup: pIC50 of CCCC1=NN(C(=O)C(=O)NCCc2ccccc2)C(O)(C(F)(F)F)C1 (centres unmarked)
Data returned: 4.46

Data request: Name the reported pIC50 value associated with the compound O=C(N/N=C/c1cc(Br)cc(Br)c1O)c1ccccc1O
Data returned: 5.24

Data request: Suppose we examine the compound CCCCCCC1=NN(C(=O)C(=O)Nc2ccc(OC)cc2)C(O)(C(F)(F)F)C1 (centres unmarked) ; what pIC50 value has been reported?
Data returned: 5.09
